SUBJECT_OF_TEST: Full length wild-type cereblon CRBN (Homo sapiens (Human))
Sequence (Q96SW2 whole entry): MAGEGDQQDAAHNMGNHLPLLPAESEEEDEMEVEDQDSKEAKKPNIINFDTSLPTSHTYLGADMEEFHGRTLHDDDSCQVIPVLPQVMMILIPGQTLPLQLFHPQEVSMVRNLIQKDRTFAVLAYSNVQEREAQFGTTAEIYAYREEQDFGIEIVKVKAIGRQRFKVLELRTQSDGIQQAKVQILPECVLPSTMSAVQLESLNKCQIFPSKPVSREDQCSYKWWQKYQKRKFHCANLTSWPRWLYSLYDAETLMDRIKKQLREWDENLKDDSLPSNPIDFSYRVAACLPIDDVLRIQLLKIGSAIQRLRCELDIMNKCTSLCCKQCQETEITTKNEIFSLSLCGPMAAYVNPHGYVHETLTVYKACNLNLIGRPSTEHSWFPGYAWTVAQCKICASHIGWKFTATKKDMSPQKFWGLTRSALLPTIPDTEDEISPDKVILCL
TEST: fluorescence polarization (FP) assay, cereblon binding
EXPERIMENTAL_SETUP: IC50 value
pIC50: −log10 of the molar value.
PARAMETER: pIC50

Request: Answer with the recorded pIC50 of Cc1ccc(NC(=O)OCc2ccc3c(c2)C(=O)N(C2CCC(=O)NC2=O)C3)cc1C#N (stereo not shown) [Compound 110] only.
Response: > 5.96

###

SUBJECT_OF_TEST: GSPT1 (Homo sapiens (Human), UniProt P15170+Q96SW2)
Sequence (P15170 whole entry): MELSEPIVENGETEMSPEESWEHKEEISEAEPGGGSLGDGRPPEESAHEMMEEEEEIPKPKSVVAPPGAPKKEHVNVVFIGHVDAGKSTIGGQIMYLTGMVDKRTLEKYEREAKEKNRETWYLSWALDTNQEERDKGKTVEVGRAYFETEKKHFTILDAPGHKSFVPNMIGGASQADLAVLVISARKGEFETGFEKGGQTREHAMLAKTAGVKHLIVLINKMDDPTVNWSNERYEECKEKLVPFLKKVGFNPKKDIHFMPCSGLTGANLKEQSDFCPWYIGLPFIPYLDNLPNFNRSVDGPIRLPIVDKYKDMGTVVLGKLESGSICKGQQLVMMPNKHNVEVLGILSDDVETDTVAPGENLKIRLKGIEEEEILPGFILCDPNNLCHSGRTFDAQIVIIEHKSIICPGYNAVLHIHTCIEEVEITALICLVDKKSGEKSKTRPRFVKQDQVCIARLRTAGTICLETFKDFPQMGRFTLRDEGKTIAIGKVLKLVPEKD
Sequence (Q96SW2 whole entry): as the sequence (Q96SW2 whole entry) above
Sequence (Q16531 2-1140 partner): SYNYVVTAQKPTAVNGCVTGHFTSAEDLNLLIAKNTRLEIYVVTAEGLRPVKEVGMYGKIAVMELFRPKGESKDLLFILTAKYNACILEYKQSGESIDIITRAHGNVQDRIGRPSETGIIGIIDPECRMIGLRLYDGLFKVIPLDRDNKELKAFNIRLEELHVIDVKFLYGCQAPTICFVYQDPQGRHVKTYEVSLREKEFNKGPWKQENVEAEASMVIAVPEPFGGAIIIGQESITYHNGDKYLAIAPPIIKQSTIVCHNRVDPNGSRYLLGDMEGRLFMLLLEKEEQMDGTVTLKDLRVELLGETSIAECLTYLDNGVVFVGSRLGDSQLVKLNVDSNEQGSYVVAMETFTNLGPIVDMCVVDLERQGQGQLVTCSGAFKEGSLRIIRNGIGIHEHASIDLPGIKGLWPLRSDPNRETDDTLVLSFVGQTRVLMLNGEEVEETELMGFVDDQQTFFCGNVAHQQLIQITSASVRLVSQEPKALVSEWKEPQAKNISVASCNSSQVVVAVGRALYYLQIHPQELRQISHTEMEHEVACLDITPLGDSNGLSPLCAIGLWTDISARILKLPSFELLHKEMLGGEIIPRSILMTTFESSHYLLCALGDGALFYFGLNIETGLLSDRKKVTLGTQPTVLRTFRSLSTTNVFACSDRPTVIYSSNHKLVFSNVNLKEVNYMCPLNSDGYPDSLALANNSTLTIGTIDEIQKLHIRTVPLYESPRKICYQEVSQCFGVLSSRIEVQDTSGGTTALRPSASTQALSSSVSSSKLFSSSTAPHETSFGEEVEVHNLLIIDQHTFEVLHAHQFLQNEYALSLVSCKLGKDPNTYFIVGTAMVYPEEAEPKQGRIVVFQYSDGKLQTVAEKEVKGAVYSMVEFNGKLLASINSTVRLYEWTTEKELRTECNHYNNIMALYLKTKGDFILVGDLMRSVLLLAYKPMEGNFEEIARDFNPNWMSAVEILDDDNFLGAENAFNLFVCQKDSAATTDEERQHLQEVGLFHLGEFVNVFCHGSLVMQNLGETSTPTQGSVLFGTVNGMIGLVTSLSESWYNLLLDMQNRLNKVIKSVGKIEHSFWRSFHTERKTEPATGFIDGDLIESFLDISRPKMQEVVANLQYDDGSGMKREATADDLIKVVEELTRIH
TEST: immunofluorescence assay for GSPT1 degradation in CAL-51 cells (Example 10)
Type: cell-based
EXPERIMENTAL_SETUP: CAL-51 cells, 6 h; read-out: IF Class (GSPT1 degradation DC50)
Protocol: The representative compounds were tested in an immunofluorescence assay for their activity to degrade GSPT1. […] Compounds were stored at 10 mM DMSO stocks. […] The outline of the cells was determined analogously from the sum of the normalized, smoothed DAPI and Actin channel, starting from each nucleus. […] GSPT1 degradation (DC50) was calculated after normalization to controls and data import in CDD vault Database, using non-linear regression.
PARAMETER: DC50

The cases that follow already have their DC50 on record.
O=C1CCC(N2Cc3ccc(COC(=O)NC45CC(N6CCCCC6)(C4)C5)cc3C2=O)C(=O)N1 (stereo not shown): > 300 nM
O=C1CCC(N2Cc3ccc(COC(=O)Nc4cc(F)c(OC(F)F)c(F)c4)cc3C2=O)C(=O)N1 (stereo not shown): 30 to 300 nM
COC(=O)C12CC(NC(=O)OCc3ccc4c(c3)C(=O)N(C3CCC(=O)NC3=O)C4)(C1)C2 (stereo not shown): > 300 nM
O=C1CCC(N2Cc3ccc(COC(=O)NC4CN(Cc5ccccc5)C4)cc3C2=O)C(=O)N1 (stereo not shown): > 300 nM
Cc1ccc(NC(=O)OCc2ccc3c(c2)C(=O)N(C2CCC(=O)NC2=O)C3)nc1Cl (stereo not shown): 30 to 300 nM

Request: Answer with the recorded DC50 of CC(C)Oc1ccc(F)c(NC(=O)OCc2ccc3c(c2)C(=O)N(C2CCC(=O)NC2=O)C3)c1 (stereo not shown) only.
Response: 30 to 300 nM

Request: Answer with the recorded DC50 of CC1(c2ccc(NC(=O)OCc3ccc4c(c3)C(=O)N(C3CCC(=O)NC3=O)C4)cc2Cl)COC1 (stereo not shown) only.
Response: < 30 nM
